# target desc: Recombinant human GR (Homo sapiens, UniProt P04150)
# Construct: purchased Invitrogen P2816
# Sequence (P04150 1-777): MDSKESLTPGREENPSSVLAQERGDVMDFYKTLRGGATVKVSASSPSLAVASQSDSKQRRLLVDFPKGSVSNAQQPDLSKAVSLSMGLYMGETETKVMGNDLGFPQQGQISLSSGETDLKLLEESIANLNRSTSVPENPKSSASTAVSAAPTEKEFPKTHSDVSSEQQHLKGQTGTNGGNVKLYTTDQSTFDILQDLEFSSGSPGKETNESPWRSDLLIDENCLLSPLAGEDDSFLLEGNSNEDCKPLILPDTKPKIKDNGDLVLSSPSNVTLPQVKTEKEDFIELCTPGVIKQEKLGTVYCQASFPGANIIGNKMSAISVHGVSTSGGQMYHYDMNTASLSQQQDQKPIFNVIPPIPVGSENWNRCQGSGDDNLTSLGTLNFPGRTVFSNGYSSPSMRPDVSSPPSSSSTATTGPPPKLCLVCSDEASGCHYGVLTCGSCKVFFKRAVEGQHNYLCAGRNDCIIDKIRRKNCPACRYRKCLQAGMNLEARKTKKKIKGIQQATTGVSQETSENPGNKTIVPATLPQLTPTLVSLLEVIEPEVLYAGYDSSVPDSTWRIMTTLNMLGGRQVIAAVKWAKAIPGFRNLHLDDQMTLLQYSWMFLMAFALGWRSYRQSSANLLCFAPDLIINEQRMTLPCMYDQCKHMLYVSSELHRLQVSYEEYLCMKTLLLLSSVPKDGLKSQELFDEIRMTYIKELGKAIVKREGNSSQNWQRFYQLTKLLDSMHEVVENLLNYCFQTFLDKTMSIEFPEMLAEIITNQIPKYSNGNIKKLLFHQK
# test: Evaluation test for binding activity to glucocorticoid receptor: receptor competitor assay by fluorescence polarization (Invitrogen GR competitor assay kit, cat No. P2816)
# setup conditions: 20 μM test compound solution, 10 μL per well plus 5 μL 4×GS1 and 5 μL 4×GR solution; room temperature 2 to 4 hours; a ratio of 100% or more is indicated by 100%
parameter: inhibition at 20 µM (stock) (%)

COc1ccccc1NCc1c(-c2ccc(OC(=O)c3cccnc3OC)cc2OC)ccc2c1C(C)=CC(C)(C)N2 ... 90
COc1ccccc1NCc1c(-c2ccc(OC(=O)c3ccncc3)cc2OC)ccc2c1C(C)=CC(C)(C)N2 ... 100
COc1ccccc1NCc1c(-c2ccc(OC(=O)c3cccs3)cc2OC)ccc2c1C(C)=CC(C)(C)N2 ... 99
COc1cc(OC(=O)c2ccoc2)ccc1-c1ccc2c(c1CNc1cc(F)ccc1C)C(C)=CC(C)(C)N2 ... 100
